assay_readout: melting point

Example entries begin here.
[[record]]
compound = "CCCCCCCCCCN(O)C(=O)NC"
result = "96 to 97 °C"

[[record]]
compound = "CCN(CC)C(=O)/C(=C/C=C/c1cc2ccccc2[nH]1)OC"
result = "141 to 143 °C"

[[record]]
compound = "CCCc1cc(Cl)c2oc(C(=O)OCC)c(C)c2c1O"
result = "165 to 166 °C"

[[record]]
compound = "CCCCCc1c(C)nc(C)c(CO)c1-c1ccccc1"
result = "99 to 100 °C"

[[record]]
compound = "CCCCC(=O)N(Cc1ccc(-c2ccccc2-c2nnn[nH]2)cc1Br)[C@H](C(=O)OCc1ccccc1)C(C)C"
result = "104 to 106 °C"


Record `CCc1nc(C(=O)NCCc2ccc(S(N)(=O)=O)cc2)no1` . Reported melting point: 159 to 160 °C

Record `CCCn1cc(C(=O)c2cccc3cc(OC)ccc23)c2ccccc21` . Reported melting point: 139 to 140 °C

Record `CCC(=O)Oc1ccc(-c2oc3cc(OC)cc(OC(=O)CC)c3c(=O)c2OC)cc1OC` . Reported melting point: 106 to 107 °C

Record CC1Oc2c(cc(Cl)cc2C(=O)O)NC1=O (stereo not given) . Reported melting point: 319 to 320 °C

Record `Cc1cc(Oc2ncc(C(F)(F)F)cc2Cl)nn1C(=O)Nc1ccc(C(F)(F)F)cc1` . Reported melting point: 164 to 167 °C

Record `COC(=O)c1c(C(=O)OC)c(-c2ccc(OC)cc2)c2c3c(ccc2c1OC)OCO3` . Reported melting point: 166 to 167 °C

Record `CC1(C)CCC(C)(C)C1OS(C)(=O)=O` . Reported melting point: 46 °C

Record `CN1Cc2c(C#N)ncn2-c2ccc(Cl)cc2C1=O` . Reported melting point: 272 to 275 °C

Record `Cn1cc(Br)cc1C=O` . Reported melting point: 123 to 124 °C

Record CC(=O)Nc1ccc(C23CC2C(=O)N(C)C3=O)cc1 (stereo not given) . Reported melting point: 183 to 184 °C

Record `Cc1ccc2c(NCc3ccc(NC(=O)c4ccc(Br)cc4)cc3)nc(Cl)nc2c1` . Reported melting point: 295 to 298 °C

Record `COc1cccc2c(Nc3ccccc3C)nccc12` . Reported melting point: 111 to 112 °C

Record `O=C(CCC(=O)N1CCC(c2ccc(Cl)cc2)CC1)c1ccc2c(c1)CCN(Cc1ccccc1)CC2` . Reported melting point: 133 to 134 °C

Record `CC1(C)C=Cc2c(ccc3c2C(=O)C(O)=CC3=O)O1` . Reported melting point: 208 °C

Record CCOC(=O)C1=C(C)NC(=O)N(C(=O)OCC)C1c1cccc([N+](=O)[O-])c1 (stereo not given) . Reported melting point: 107 to 108 °C

Record CCc1cccc(C(O)CCc2ccccc2)c1NC(=O)CC1c2ccccc2Oc2ccccc21 (stereo not given) . Reported melting point: 128 to 129 °C

Record `CCOC(=O)C(=NOC)c1csc2cc(F)ccc12` . Reported melting point: 84.5 to 86 °C

Record CC1(C)Oc2cc3nonc3cc2C(NC(=O)NCCCl)C1O (stereo not given) . Reported melting point: 178 to 180 °C

###

assay_readout: melting point

Example entries begin here.
[[record]]
compound = "CCC(Cn1nc(-c2ccccc2)c(-c2ccccc2)c(C#N)c1=O)[N+](=O)[O-] (stereo not drawn)"
result = "154 to 155 °C"

[[record]]
compound = "O=C(c1cccs1)N1CCN(c2c([N+](=O)[O-])c(=O)n(Cc3ccccc3)c3ncccc23)CC1"
result = "255 °C"


Moving on to another compound below.
Record `NC(=O)CN1CCN(c2ccc3c(c2)N2CCN=C2C(c2ccccc2)=[N+]3[O-])CC1` . Reported melting point: 225 to 227 °C
